Experiment: Cmax in Wistar Han rat at 3 mg/kg, po measured after 24 hours by UPLC-MS/MS analysis
Type: ADME, organism-based
Set-up: route oral, dose 3 mg/kg, time 24 hrs
Conditions: in vivo
recorded.endpoint: Cmax

> print(dat)
                              sample.smiles  recorded.result
1  CC#C[C@@H](CC(=O)O)c1ccc(OCC(C)=C(C)C)cc1       1700 ng/mL

Then this molecule:
Item: Cc1cc(OCCCS(C)(=O)=O)cc(C)c1-c1cccc(COc2ccc3c(c2)OC[C@H]3CC(=O)O)c1 | Cmax: 1830 ng/mL

====

Assay: Tmax in Wistar Han rat at 3 mg/kg, po measured after 24 hours by UPLC-MS/MS analysis
Assay type: ADME, organism-based
Details: in vivo
recorded.endpoint: Tmax

> print(dat)
                              sample.smiles  recorded.endpoint  recorded.result
1  Cc1cc(OCCCS(C)(=O)=O)cc(C)c1-c1cccc(COc2ccc3c(c2)OC[C@H]3CC(=O)O)c1               Tmax              2 h

Item: CC#C[C@@H](CC(=O)O)c1ccc(OCC(C)=C(C)C)cc1 | Tmax: 1 h
